Where these numbers come from: ChEMBL document CHEMBL3885861

species: Rattus norvegicus; test: Open TG-GATES - Regimen: Daily Repeat; type: toxicity, organism-based, Sprague-Dawley; set-up: regimen Daily Repeat, gender Male, age 6 weeks; settings: in vivo, po, 0 mg/kg, […], tissue Blood, route gavage, dose level Control, time 14 day
Ret strictly under 4% means Y; at 4% or over means N.

• CN(C)CCC(c1ccc(Cl)cc1)c1ccccn1 (stereo not drawn) = Y
• CN/C(=N/CCSCc1nc[nH]c1C)NC#N = N
• CCCc1cc(=O)[nH]c(=S)[nH]1 = N
• Brc1ccccc1 = N
• O=C(OC[C@H]1O[C@@H](OC(=O)c2cc(O)c(O)c(OC(=O)c3cc(O)c(O)c(O)c3)c2)[C@H](OC(=O)c2cc(O)c(O)c(OC(=O)c3cc(O)c(O)c(O)c3)c2)[C@@H](OC(=O)c2cc(O)c(O)c(OC(=O)c3cc(O)c(O)c(O)c3)c2)[C@@H]1OC(=O)c1cc(O)c(O)c(OC(=O)c2cc(O)c(O)c(O)c2)c1)c1cc(O)c(O)c(OC(=O)c2cc(O)c(O)c(O)c2)c1 = N

### Prompt Just wondering, is Ret of CN1C(=O)CCS(=O)(=O)C1c1ccc(Cl)cc1 (stereo not drawn) below 4%?
### Response Y

### Prompt Just wondering, is Ret of COC(=O)C1=C(C)NC(C)=C(C(=O)OC)C1c1ccccc1[N+](=O)[O-] below 4%?
### Response N

### Prompt Just wondering, is Ret of NC1=NC(=O)C(c2ccccc2)O1 (stereo not drawn) below 4%?
### Response N

### Prompt Just wondering, is Ret of Cc1nnc2n1-c1ccc(Cl)cc1C(c1ccccc1Cl)=NC2 below 4%?
### Response N

### Prompt Just wondering, is Ret of CC(C)NNC(=O)c1ccncc1 below 4%?
### Response N

### Prompt Just wondering, is Ret of CNC(=C[N+](=O)[O-])NCCSCc1ccc(CN(C)C)o1 below 4%?
### Response Y
